- target.system: T1, bovine GPR8 (bovine, UniProt Q8MJV2 1-336)
- T1 sequence: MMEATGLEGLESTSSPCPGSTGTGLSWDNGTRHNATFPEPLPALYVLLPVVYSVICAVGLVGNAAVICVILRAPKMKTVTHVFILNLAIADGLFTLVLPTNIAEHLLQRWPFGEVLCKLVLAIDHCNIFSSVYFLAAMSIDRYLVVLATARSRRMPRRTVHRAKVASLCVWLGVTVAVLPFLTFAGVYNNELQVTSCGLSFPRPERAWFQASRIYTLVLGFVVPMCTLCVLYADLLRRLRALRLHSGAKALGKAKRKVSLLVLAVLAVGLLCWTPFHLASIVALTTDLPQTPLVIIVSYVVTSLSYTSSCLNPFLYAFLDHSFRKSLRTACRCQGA
- assay.details: cell-based or functional assay
Non-standard residues stand in square brackets, D forms with d. No end group written: not given here. Trp(6-Br) = N[C@@H](Cc1c[nH]c2cc(Br)ccc12)C(=O)O; dTrp(6-Br) = N[C@H](Cc1c[nH]c2cc(Br)ccc12)C(=O)O
measurement.name: IC50 of intracellular cAMP production suppression (cAMP production inhibition rate) (nM)

[Trp(6-Br)]YKPTAGQGYYSVGRAAGLLSGFHRSPYA [LTrp(6Br)1-bovine GPR7L(29)] :: 4

(1) WYKPTAGQGYYSVGRAAGLLSGFHRSPYA (also called bovine GPR7 ligand B; non-brominated GPR7L) [Trp1-bovine GPR7L(29)]
(2) [dTrp(6-Br)]YKPTAGQGYYSVGRAAGLLSGFHRSPYA [DTrp(6Br)1-bovine GPR7L(29)]
Of 1 and 2 , which shows the smaller IC50 of intracellular cAMP production suppression (cAMP production inhibition rate) value? API: response body contains the label of the selected item. 1
(1: 5.4 nM, 2: 34 nM)
